target: rat collagen, acid soluble, type I, rat tail (Upstate 08-115) (rat) (UniProt P02454); assay: dried collagen assay
Sequence (P02454 152-1207, chain 1 of 2): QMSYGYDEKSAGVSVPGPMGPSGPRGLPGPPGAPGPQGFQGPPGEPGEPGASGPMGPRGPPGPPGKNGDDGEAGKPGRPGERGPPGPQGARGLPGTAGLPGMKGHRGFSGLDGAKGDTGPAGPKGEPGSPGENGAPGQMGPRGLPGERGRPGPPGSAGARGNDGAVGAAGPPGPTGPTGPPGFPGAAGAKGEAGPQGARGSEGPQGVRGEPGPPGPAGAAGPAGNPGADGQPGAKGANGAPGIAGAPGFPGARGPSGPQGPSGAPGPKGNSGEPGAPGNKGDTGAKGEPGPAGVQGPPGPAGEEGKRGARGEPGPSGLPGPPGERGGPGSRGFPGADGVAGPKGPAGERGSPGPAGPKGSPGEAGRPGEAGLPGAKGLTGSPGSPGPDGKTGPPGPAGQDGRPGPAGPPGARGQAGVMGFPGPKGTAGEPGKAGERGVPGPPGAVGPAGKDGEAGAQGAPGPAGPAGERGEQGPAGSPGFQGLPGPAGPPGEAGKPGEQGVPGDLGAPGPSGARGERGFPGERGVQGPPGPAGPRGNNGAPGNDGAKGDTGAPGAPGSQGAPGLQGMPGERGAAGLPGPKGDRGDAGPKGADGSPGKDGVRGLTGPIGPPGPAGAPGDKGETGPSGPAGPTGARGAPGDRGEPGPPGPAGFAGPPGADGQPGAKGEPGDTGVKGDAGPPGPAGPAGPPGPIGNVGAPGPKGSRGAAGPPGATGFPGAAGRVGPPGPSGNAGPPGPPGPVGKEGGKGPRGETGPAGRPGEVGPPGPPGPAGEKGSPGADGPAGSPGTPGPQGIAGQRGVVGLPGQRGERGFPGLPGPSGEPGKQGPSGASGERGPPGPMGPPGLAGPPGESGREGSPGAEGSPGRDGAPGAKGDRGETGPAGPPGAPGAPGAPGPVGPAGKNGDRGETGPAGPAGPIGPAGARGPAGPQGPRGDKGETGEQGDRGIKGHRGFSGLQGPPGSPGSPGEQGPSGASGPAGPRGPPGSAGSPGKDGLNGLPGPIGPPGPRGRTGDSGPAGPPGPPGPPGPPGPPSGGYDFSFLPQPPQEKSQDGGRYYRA
Sequence (P02466 86-1125, chain 2 of 2, further chain): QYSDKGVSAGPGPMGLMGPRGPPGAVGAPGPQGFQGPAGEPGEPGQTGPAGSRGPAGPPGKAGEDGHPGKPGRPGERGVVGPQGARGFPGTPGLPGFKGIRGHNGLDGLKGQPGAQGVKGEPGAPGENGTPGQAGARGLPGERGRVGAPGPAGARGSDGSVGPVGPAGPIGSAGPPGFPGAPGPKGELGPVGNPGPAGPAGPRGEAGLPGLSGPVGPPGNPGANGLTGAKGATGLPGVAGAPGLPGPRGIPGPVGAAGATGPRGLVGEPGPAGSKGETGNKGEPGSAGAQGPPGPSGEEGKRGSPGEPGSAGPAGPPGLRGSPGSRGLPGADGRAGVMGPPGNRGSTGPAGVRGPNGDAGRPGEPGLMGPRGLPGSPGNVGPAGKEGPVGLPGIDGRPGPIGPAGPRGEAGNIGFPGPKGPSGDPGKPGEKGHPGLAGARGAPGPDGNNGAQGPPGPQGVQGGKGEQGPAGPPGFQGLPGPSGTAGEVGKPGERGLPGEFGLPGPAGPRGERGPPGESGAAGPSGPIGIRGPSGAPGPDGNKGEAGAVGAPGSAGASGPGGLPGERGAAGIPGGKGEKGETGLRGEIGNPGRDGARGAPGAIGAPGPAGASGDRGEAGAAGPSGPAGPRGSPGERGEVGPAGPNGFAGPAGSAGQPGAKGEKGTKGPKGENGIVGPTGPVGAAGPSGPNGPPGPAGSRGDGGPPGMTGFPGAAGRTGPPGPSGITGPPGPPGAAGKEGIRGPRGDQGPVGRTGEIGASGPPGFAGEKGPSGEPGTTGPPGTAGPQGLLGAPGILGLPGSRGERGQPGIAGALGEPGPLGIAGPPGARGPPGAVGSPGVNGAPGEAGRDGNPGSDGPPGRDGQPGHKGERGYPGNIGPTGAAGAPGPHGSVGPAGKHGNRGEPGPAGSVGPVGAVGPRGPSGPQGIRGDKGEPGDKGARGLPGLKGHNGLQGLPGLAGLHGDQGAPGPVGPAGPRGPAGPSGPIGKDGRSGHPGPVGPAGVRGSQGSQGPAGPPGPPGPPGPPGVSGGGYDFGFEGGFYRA
Bridge positions count the residues as written; N and C are the ends. Primed or numbered codes have the meaning given here. Ends that are not written are not given here. Gd^T = not defined here; Gd^T″ = GdDTPA-thiourea
OBSERVABLE: % bound (%)
Number only, in %; omit the unit.

Q: Data request, read-out % bound, for {Gd^T″}-GQWHCTTRFPHAYCLYG (disulfide 5-14 (inferred)) [Compound ID 878]
Ans: 9

Q: Thanks! And YHACYQAGCYIW (disulfide 4-9 (inferred)) [SEQ ID NO 107] ?
Ans: 6

Q: Thanks! And {Gd^T}-GQWACSGDEYTWHCNYE (disulfide 5-14 (inferred); not fully specified (C-terminus); reading uncertain) [Compound ID 840] ?
Ans: 3
